testMethodNotes: chemical genetic growth profiling, strain panel (AID 1159580);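 note: tested at 20 µM; growth read once vehicle control cultures reached saturation at 30 °C; 1 = growth at the plate median or of vehicle wells; lower values mean less growth of the strain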
protocolConditions: S. cerevisiae deletion strains, growth OD, locus YOL006C, strain TOP1
Among all 5,500 compounds or so, about 2,000 (36%) were called active. About 18% were inconclusive and are not listed. Cut-off read from the data, not from the text of the source: active = normalized growth mostly below about 0.91 (no sharp cut-off); inconclusive = no clear call, values can overlap the other calls; inactive = mostly above about 0.92. The list shows a part of the results.
Assign a class; possible classes are label 1 = active, label 0 = inactive

compound: CO[C@@H]1C[C@@H](C[C@H]2CC[C@H](C)[C@H]([C@@H](C)C(=O)O)O2)O[C@]2(O[C@](C)([C@H]3CC[C@@](C)(C4O[C@@H](C5O[C@@](O)(CO)[C@H](C)C[C@@H]5C)C[C@@H]4C)O3)C[C@H]2C)[C@@H]1C (some centres not stated)
discreteLabel: label 0

Outcome? O=C1O[C@@H](CO)[C@H](O)[C@@H](O)[C@@H]1O
label 0

Same question for S=c1[nH]c2ccccc2s1 please.
label 1

====

testMethodNotes: chemical genetic growth profiling, strain panel (AID 1159580);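 note: tested at 20 µM; growth read once vehicle control cultures reached saturation at 30 °C; 1 = growth at the plate median or of vehicle wells; lower values mean less growth of the strain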
protocolConditions: S. cerevisiae deletion strains, growth OD, locus YCL069W, strain vba3
Hit rate of the full screen: of about 5,500 compounds, about 2,000 (36%) were called active. Not shown: some 18% with an inconclusive outcome. Cut-off read from the data, not from the text of the source: active = normalized growth mostly below about 0.91 (no sharp cut-off); inconclusive = no clear call, values can overlap the other calls; inactive = mostly above about 0.92. The list shows a part of the results.
Assign a class; possible classes are active, inactive

molecule: OC/C=C/c1ccc(O)c(O)c1
discreteLabel: inactive

molecule: COC(=O)[C@H]1[C@H]2C[C@@H]3c4[nH]c5cc(OC)ccc5c4CCN3C[C@H]2C[C@@H](OC(=O)c2cc(OC)c(OC)c(OC)c2)[C@@H]1OC
discreteLabel: inactive

molecule: NC(=O)c1cc[n+](CC2=C(C(=O)O)N3C(=O)C(NC(=O)C(c4ccccc4)S(=O)(=O)[O-])C3SC2)cc1 (stereo unspecified)
discreteLabel: inactive

molecule: CN1CCc2cccc3c2C1Cc1ccc(O)c(O)c1-3 (stereo unspecified)
discreteLabel: inactive

molecule: CCCCC(CC)CN=C(N)NC(N)=NCCCCCCN=C(N)NC(N)=NCC(CC)CCCC (stereo unspecified)
discreteLabel: active

molecule: C=CCN1CC[C@]23c4c5ccc(O)c4OC2C(=O)CC[C@@]3(O)[C@H]1C5 (stereo partly specified)
discreteLabel: inactive

molecule: O=C(/C=C/c1ccc(O)c(O)c1)O[C@@H]1C[C@](O)(C(=O)O)C[C@@H](O)[C@H]1O
discreteLabel: inactive

molecule: Oc1ccc(/C=C/c2cc(O)cc(O)c2)cc1
discreteLabel: inactive

molecule: CCC(COC(=O)c1cc(OC)c(OC)c(OC)c1)(c1ccccc1)N(C)C (stereo unspecified)
discreteLabel: inactive

molecule: Cc1ccc(C(C)C)cc2c(C)ccc1-2
discreteLabel: inactive

Outcome? O=C1N=C(O)CN1/N=C\c1ccc(-c2ccc([N+](=O)[O-])cc2)o1
inactive

Same question for CC[C@@]1(C2O[C@@H](C3O[C@@](O)(CC)[C@H](C)C[C@@H]3C)C[C@@H]2C)CC[C@H]([C@]2(C)CCC3(C[C@H](O)[C@@H](C)[C@@H]([C@H](C)[C@@H](OC)[C@H](C)C(=O)O)O3)O2)O1 (stereo partly specified) please.
inactive

Same question for CC[C@]12CCCN3CCc4c(n(c5ccccc45)C(=O)C1)[C@@H]32 please.
inactive

Same question for N[C@@H](CCC(=O)N[C@@H](CCSC(CC(=O)O)C(=O)O)C(=O)NCC(=O)O)C(=O)O (stereo partly specified) please.
inactive

Same question for COc1ccc2c(c1O)-c1c(OC)c(OC)cc3c1[C@H](C2)N(C)CC3 please.
inactive
